Assay: Aqueous solubility in pH 7.4 phosphate buffer at 10 mg/ml after 4 hrs by UV-HPLC method
Type: physicochemical
Details: pH 7.4, 4 h
Please respond with reported solubility for every item in the list.
Numbers only, in µg/mL.

In the examples that follow, each entry is paired with its recorded solubility.
> print(dat)
                                        mol  readout.label  measured.value
1  Cc1cc(CCC#N)cc(C)c1Oc1cc(Nc2ccc(C#N)cc2)c(N)cc1C(=O)N(C)C     solubility            1.08
2  Cc1cc(CCC#N)cc(C)c1Oc1cc(Nc2ccc(C#N)cc2)c(N)cc1CNC1CC1     solubility            13.6
3  CNC(=O)c1cc(N)c(Nc2ccc(C#N)cc2)cc1Oc1c(Br)cc(CCC#N)cc1OC     solubility            3.38
4  CCNC(=O)c1cc(N)c(Nc2ccc(C#N)cc2)cc1Oc1c(C)cc(CCC#N)cc1C     solubility            1.08
5  Cc1cc(CCC#N)cc(C)c1Oc1cc(Nc2ccc(C#N)cc2)c(N)cc1Br     solubility            0.12

I would be grateful if you could provide solubility for each of the following entries.
1. Cc1cc(CCC#N)cc(C)c1Oc1cc(Nc2ccc(C#N)cc2)c(N)cc1C(=O)NC1CC1
2. COC(=O)c1cc(N)c(Nc2ccc(C#N)cc2)cc1Oc1c(Br)cc(CCC#N)cc1OC
3. Cc1cc(CCC#N)cc(C)c1Oc1cc(Nc2ccc(C#N)cc2)c(N)cc1COC(=O)C1CC1
4. Cc1cc(CCC#N)cc(C)c1Oc1cc(Nc2ccc(C#N)cc2)c(N)cc1CN(C)C

Resp:
1. 1.94
2. 0.2
3. 1.64
4. 23.4

Sourced from ChEMBL document CHEMBL3808367
